Target: α7^L131G,Q139L,Y217F-5HT3 H163R (Homo sapiens, UniProt P36544, H163R/L131G/M226I/Q139L/T225I/Y217F)
Sequence (P36544 with tags, fused parts or gaps L131G/Q139L/H163R/Y217F/T225I/M226I limits assumed): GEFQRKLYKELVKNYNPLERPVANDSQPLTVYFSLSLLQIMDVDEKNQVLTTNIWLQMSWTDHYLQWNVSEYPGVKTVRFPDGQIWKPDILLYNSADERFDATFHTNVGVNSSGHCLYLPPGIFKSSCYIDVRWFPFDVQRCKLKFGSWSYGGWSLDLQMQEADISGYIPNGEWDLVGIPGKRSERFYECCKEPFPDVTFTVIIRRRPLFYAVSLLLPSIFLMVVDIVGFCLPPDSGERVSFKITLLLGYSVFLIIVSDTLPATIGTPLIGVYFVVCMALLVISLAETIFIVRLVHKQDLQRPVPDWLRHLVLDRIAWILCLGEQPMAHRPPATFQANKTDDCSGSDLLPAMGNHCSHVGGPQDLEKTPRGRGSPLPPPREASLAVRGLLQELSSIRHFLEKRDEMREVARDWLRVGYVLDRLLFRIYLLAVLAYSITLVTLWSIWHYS
Test: EC50 dose response, PSAM4-5HT3 with additional mutations
Settings: additional mutation H163R; read-out: EC50s (SEM) for additional mutations of α7^L131G, Q139L, Y217F -5HT3
Answer each item with its documented pEC50.
Please keep in mind that pEC50 is minus log10 of the molar concentration; only the number is needed.

Challenge: What value of pEC50 has been reported for the following compound? C[N+](C)(C)CCO [Choline, choline, reference compound]
Response given: 3.82

Challenge: And for CCCOc1cnc2cc3c(cc2n1)C1CNCC3C1 (stereo not drawn) [uPSEM 817] ?
Response given: 8.26

Challenge: And for COc1cnc2cc3c(cc2n1)C1CNCC3C1 (stereo not drawn) [uPSEM 793] ?
Response given: 8.82

---

Answer each item with its documented EC50.
Molecular target: α7^L131G,Q139L,Y217F-5HT3 S172I (Homo sapiens, UniProt P36544, L131G/M226I/Q139L/S172I/T225I/Y217F)
Sequence (P36544 with tags, fused parts or gaps L131G/Q139L/S172I/Y217F/T225I/M226I limits assumed): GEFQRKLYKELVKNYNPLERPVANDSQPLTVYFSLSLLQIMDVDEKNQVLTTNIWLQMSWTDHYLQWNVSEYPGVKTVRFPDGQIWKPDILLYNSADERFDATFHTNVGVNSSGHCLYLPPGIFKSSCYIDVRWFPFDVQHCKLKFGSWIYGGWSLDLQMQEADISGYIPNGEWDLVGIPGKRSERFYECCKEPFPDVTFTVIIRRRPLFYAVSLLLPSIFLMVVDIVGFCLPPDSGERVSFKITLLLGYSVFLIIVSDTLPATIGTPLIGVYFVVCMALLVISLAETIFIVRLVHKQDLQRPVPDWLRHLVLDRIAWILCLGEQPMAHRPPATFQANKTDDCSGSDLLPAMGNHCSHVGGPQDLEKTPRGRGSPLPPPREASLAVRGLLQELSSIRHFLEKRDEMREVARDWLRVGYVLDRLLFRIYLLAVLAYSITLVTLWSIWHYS
Test: EC50 dose response, PSAM4-5HT3 with additional mutations
Conditions: additional mutation S172I; read-out: EC50s (SEM) for additional mutations of α7^L131G, Q139L, Y217F -5HT3
Give your result in µM as a bare value.

Challenge: What value of EC50 has been reported for the following compound? CCCOc1cnc2cc3c(cc2n1)C1CNCC3C1 (stereo not drawn)
Response given: 0.018

Challenge: And for COc1cnc2cc3c(cc2n1)C1CNCC3C1 (stereo not drawn) ?
Response given: 0.01

Challenge: And for C[N+](C)(C)CCO [Choline, choline, reference compound] ?
Response given: 1110

---

Biological target: α7^L131G,Q139L,Y217F-5HT3 H163T (Homo sapiens, UniProt P36544, H163T/L131G/M226I/Q139L/T225I/Y217F)
Assay: EC50 dose response, PSAM4-5HT3 with additional mutations
Conditions: additional mutation H163T; read-out: EC50s (SEM) for additional mutations of α7^L131G, Q139L, Y217F -5HT3
experimental_endpoint: pEC50
Please keep in mind that pEC50 is minus log10 of the molar concentration; only the number is needed.

Challenge: What value of pEC50 has been reported for the following compound? COc1cnc2cc3c(cc2n1)C1CNCC3C1 (stereo not drawn) [uPSEM 793]
Response given: 8.85

Challenge: And for C[N+](C)(C)CCO [Choline, choline, reference compound] ?
Response given: 3.48

Challenge: And for CCCOc1cnc2cc3c(cc2n1)C1CNCC3C1 (stereo not drawn) [uPSEM 817] ?
Response given: 7.92

---

Molecular target: PSAM4-5HT3 (α7-5HT3^L131G,Q139L,Y217F) (Homo sapiens, UniProt P36544, L131G/M226I/Q139L/T225I/Y217F)
Construct: expressed in transfected cells; host or cells: HEK 293
Sequence (P36544 with tags, fused parts or gaps L131G/Q139L/Y217F/T225I/M226I limits assumed): as the sequence (P36544 with tags, fused parts or gaps L131G/Q139L/H163R/Y217F/T225I/M226I limits assumed) above, with R141H counted along it
Assay: EC50 dose response of LGIC ligands on PSAM4-5HT3
Format: cell-based
Conditions: PSAM4-5HT3 (no additional mutation); read-out: EC50s (SEM) for additional mutations of α7^L131G, Q139L, Y217F -5HT3
Answer each item with its documented pEC50.
Please keep in mind that pEC50 is minus log10 of the molar concentration; only the number is needed.

Challenge: What value of pEC50 has been reported for the following compound? CCCOc1cnc2cc3c(cc2n1)C1CNCC3C1 (stereo not drawn)
Response given: 8.39

Challenge: And for COc1cnc2cc3c(cc2n1)C1CNCC3C1 (stereo not drawn) ?
Response given: 8.77

Challenge: And for C[N+](C)(C)CCO [Choline, choline, reference compound] ?
Response given: 3.84

---

Answer each item with its documented pEC50.
Biological target: α7-5HT3 L131G, Q139L, Y217N (Homo sapiens, UniProt P36544, L131G/M226I/Q139L/T225I/Y217N)
Construct: 5HT3 ion pore domain (fusion partner)
Sequence (P36544 with tags, fused parts or gaps L131G/Q139L/Y217N/T225I/M226I limits assumed): as the sequence (P36544 with tags, fused parts or gaps L131G/Q139L/H163R/Y217F/T225I/M226I limits assumed) above, with R141H, F195N counted along it
Experiment: EC50 dose response, α7-5HT3 mutant
Details: read-out: EC50s (SEM) for additional mutations of α7^L131G, Q139L, Y217F -5HT3
pEC50: −log10 of the molar value.

Challenge: What value of pEC50 has been reported for the following compound? CCCOc1cnc2cc3c(cc2n1)C1CNCC3C1 (centres unmarked) [uPSEM 817]
Response given: < 7.00

Challenge: And for COc1cnc2cc3c(cc2n1)C1CNCC3C1 (centres unmarked) [uPSEM 793] ?
Response given: < 7.00

---

Molecular target: α7^L131G,Q139L,Y217F-5HT3 H163A (Homo sapiens, UniProt P36544, H163A/L131G/M226I/Q139L/T225I/Y217F)
Test: EC50 dose response, PSAM4-5HT3 with additional mutations
Conditions: additional mutation H163A; read-out: EC50s (SEM) for additional mutations of α7^L131G, Q139L, Y217F -5HT3
experimental_endpoint: pEC50
Please keep in mind that pEC50 is minus log10 of the molar concentration; only the number is needed.

Challenge: What value of pEC50 has been reported for the following compound? C[N+](C)(C)CCO [Choline, choline, reference compound]
Response given: 3.66

Challenge: And for CCCOc1cnc2cc3c(cc2n1)C1CNCC3C1 (stereo not drawn) ?
Response given: 7.28

Challenge: And for COc1cnc2cc3c(cc2n1)C1CNCC3C1 (stereo not drawn) ?
Response given: 9.30

---

Target: α7^L131G,Q139L,Y217F-5HT3 H163S (Homo sapiens, UniProt P36544, H163S/L131G/M226I/Q139L/T225I/Y217F)
Assay: EC50 dose response, PSAM4-5HT3 with additional mutations
Conditions: additional mutation H163S; read-out: EC50s (SEM) for additional mutations of α7^L131G, Q139L, Y217F -5HT3
Answer each item with its documented pEC50.
Please keep in mind that pEC50 is minus log10 of the molar concentration; only the number is needed.

Challenge: What value of pEC50 has been reported for the following compound? C[N+](C)(C)CCO [Choline, choline, reference compound]
Response given: 3.61

Challenge: And for CCCOc1cnc2cc3c(cc2n1)C1CNCC3C1 (stereo not drawn) ?
Response given: 8.09

Challenge: And for COc1cnc2cc3c(cc2n1)C1CNCC3C1 (stereo not drawn) ?
Response given: 9.40

---

Target: α7^L131G,Q139L,Y217F-5HT3 S172V (Homo sapiens, UniProt P36544, L131G/M226I/Q139L/S172V/T225I/Y217F)
Sequence (P36544 with tags, fused parts or gaps L131G/Q139L/S172V/Y217F/T225I/M226I limits assumed): as the sequence (P36544 with tags, fused parts or gaps L131G/Q139L/S172I/Y217F/T225I/M226I limits assumed) above, with I150V counted along it
Assay: EC50 dose response, PSAM4-5HT3 with additional mutations
Details: additional mutation S172V; read-out: EC50s (SEM) for additional mutations of α7^L131G, Q139L, Y217F -5HT3
experimental_endpoint: pEC50
Please keep in mind that pEC50 is minus log10 of the molar concentration; only the number is needed.

Challenge: What value of pEC50 has been reported for the following compound? CCCOc1cnc2cc3c(cc2n1)C1CNCC3C1 (stereo not drawn)
Response given: 8.22

Challenge: And for C[N+](C)(C)CCO [Choline, choline, reference compound] ?
Response given: 3.05

Challenge: And for COc1cnc2cc3c(cc2n1)C1CNCC3C1 (stereo not drawn) ?
Response given: 8.57

---

Biological target: α7-5HT3 L131G, Q139L, W171Y (Homo sapiens, UniProt P36544, L131G/M226I/Q139L/T225I/W171Y)
Test: EC50 dose response, α7-5HT3 mutant
Conditions: read-out: EC50s (SEM) for additional mutations of α7^L131G, Q139L, Y217F -5HT3
Answer each item with its documented EC50.

Challenge: Request - read-out EC50 | tested on α7-5HT3 L131G, Q139L, W171Y (Homo sapiens, UniProt P36544, L131G/M226I/Q139L/T225I/W171Y) | compound CCCOc1cnc2cc3c(cc2n1)C1CNCC3C1 (centres unmarked)
Response given: > 100 nM

Challenge: And for COc1cnc2cc3c(cc2n1)C1CNCC3C1 (centres unmarked) ?
Response given: > 100 nM

---

Molecular target: α7^L131G,Q139L,Y217F-5HT3 W156N, H163T (Homo sapiens, UniProt P36544, H163T/L131G/M226I/Q139L/T225I/W156N/Y217F)
Construct: expressed in transfected cells; host or cells: HEK 293
Assay: EC50 dose response, PSAM4-5HT3 with additional mutations
Assay type: cell-based
Settings: read-out: EC50s (SEM) for additional mutations of α7^L131G, Q139L, Y217F -5HT3
Answer each item with its documented pEC50.
Please keep in mind that pEC50 is minus log10 of the molar concentration; only the number is needed.

Challenge: What value of pEC50 has been reported for the following compound? COc1cnc2cc3c(cc2n1)C1CNCC3C1 (stereo not drawn)
Response given: 8.70

Challenge: And for C[N+](C)(C)CCO [Choline, choline, reference compound] ?
Response given: 3.19

Challenge: And for CCCOc1cnc2cc3c(cc2n1)C1CNCC3C1 (stereo not drawn) ?
Response given: 7.89

Data origin, for the record: patent US20250145687A1
